The measured values listed here are drawn from PubChem BioAssay AID602318.

- target: 26S proteasome non-ATPase regulatory subunit 14 (Homo sapiens)
- experiment: Rpn11 (PSMD14) deubiquitinase inhibitors, confirmation, biochemical, fluorescence polarization, single concentration (AID 602318)
- experimentalSetup: purified human 26S proteasome, Ub4-pepOG fluorescence polarization; at 20 µM; proteasome pretreated with epoxomicin
Hit rate of the full screen: of about 1,900 compounds, about 550 (29%) were called active. Cut-off read from the data, not from the text of the source: active = inhibition above about 40%; inactive = the rest. Only a sample is shown.
Labels: 1 (yes) = active, 0 (no) = inactive

| compound | assignedCategory |
| --- | --- |
| COC(=O)c1ccc(OCC(=O)NC(C)(C)C)cc1 | 0 (no) |
| O=C(Nc1ccc(-c2nnc(-c3ccccc3)o2)cc1)c1ccc(Br)o1 | 0 (no) |
| CCNCc1cc2cc(C)ccc2[nH]c1=O | 0 (no) |
| COc1cccc(-c2nn(-c3ccccc3)cc2/C=C(\C#N)C(=O)NCCCn2ccnc2)c1 | 1 (yes) |
| Oc1c(CN2CCCC2)cc(COCc2ccccc2)c2cccnc12 | 0 (no) |
| CCc1ccc(NC(=O)CS(=O)CC(=O)NCCCc2ccccc2)cc1 (stereo unspecified) | 0 (no) |
| Cc1ccc(Nc2ccccc2N)cc1 | 0 (no) |
| Cc1ccc(-c2nnc(-c3ccc(NC(=O)c4cccs4)cc3)o2)cc1 | 0 (no) |
| Cc1sc2nc(COC(=O)C(NC(=O)c3ccc(Cl)cc3Cl)C(C)C)[nH]c(=O)c2c1C (stereo unspecified) | 0 (no) |
| Cc1ccc2cc(C#N)c(NCCNC(=S)NCCCN3CCOCC3)nc2c1 | 0 (no) |
| Cc1ccc(Nc2nc(Cl)c(C=O)s2)cc1 | 1 (yes) |
